target: HLA-B*51:01; assay: IEDB peptide-MHC binding, purified MHC/competitive/fluorescence; filed as Kd, often an IC50 or EC50 that approximates it; bounds were set here for any values at or beyond the usual limits of such assays; conditions: source organism: Zaire ebolavirus
pKd: −log10 of the molar value.
Recorded pKd by entry

// solved cases for pKd follow
>>> print(df.to_string())
   item_sequence  result
0      NFFHASLAY  ≤ 4.70
1      TSACGIFLK  ≤ 4.70
2      TPSGKRLQI  ≤ 4.70

The sequence identified as VLMKQIPIW registered its pKd at ≤ 4.70

---

Recorded pKd by entry
target: HLA-B*44:03; assay: IEDB peptide-MHC binding, purified MHC/competitive/radioactivity; filed as Kd, often an IC50 or EC50 that approximates it; bounds were set here for any values at or beyond the usual limits of such assays; settings: source organism: Mammarenavirus lassaense
pKd: −log10 of the molar value.

// solved cases for pKd follow
>>> print(df.to_string())
   item_sequence  result
0      HDFGIPTPS  ≤ 4.11
1     SEAQMSIQLI    6.63

Now let's try a different one.
The sequence identified as PDYKRPGVS registered its pKd at ≤ 4.27
